# Condition Label: 308.15 K; 101.33 kPa; Liquid; Concentric cylinders viscometry
Please note: Condition met applies when viscosity is 60 mPa·s or greater, and Condition not met applies otherwise.

| Molecule | Discrete Label |
| --- | --- |
| COCC[N+]1(C)CCCC1.O=S(=O)([N-]S(=O)(=O)C(F)(F)F)C(F)(F)F | Condition not met |
| CCCCn1cc[n+](C)c1C.O=S(=O)([N-]S(=O)(=O)C(F)(F)F)C(F)(F)F | Condition met |
| CCCC[N+]1(C)CCCC1.O=S(=O)([N-]S(=O)(=O)C(F)(F)F)C(F)(F)F | Condition not met |
| CCCC[N+]1(C)CCCC1.FC(F)(F)C(F)(F)[P-](F)(F)(F)(C(F)(F)C(F)(F)F)C(F)(F)C(F)(F)F | Condition met |
| CCCCCCOS(=O)(=O)[O-].CC[n+]1ccn(C)c1 [3-ethyl-1-methyl-1H-imidazolium hexyl sulfate] | Condition met |
| CCCC[N+]1(C)CCCC1.O=S(=O)([O-])C(F)(F)F [1-butyl-1-methylpyrrolidinium trifluoromethanesulfonate] | Condition met |
| CCCCCCCCCCCCCC[P+](CCCCCC)(CCCCCC)CCCCCC.FC(F)(F)C(F)(F)[P-](F)(F)(F)(C(F)(F)C(F)(F)F)C(F)(F)C(F)(F)F | Condition met |

====

# Condition Label: 308.15 K; 101.33 kPa; Liquid; Vibrating tube method
Numbers after ± are expanded uncertainties.
Below, each entry is listed alongside its reported mass density.

| Compound | mass density |
| --- | --- |
| CCCC[N+]1(C)CCCC1.O=S(=O)([N-]S(=O)(=O)C(F)(F)F)C(F)(F)F | 1386.1 ± 1.9 kg/m3 |
| CCOS(=O)(=O)[O-].CCn1cc[n+](C)c1 [1-ethyl-3-methylimidazolium ethyl sulfate] | 1231 ± 1.6 kg/m3 |
| CCCCn1cc[n+](C)c1C.O=S(=O)([N-]S(=O)(=O)C(F)(F)F)C(F)(F)F | 1410.1 ± 1.9 kg/m3 |
| CCCC[N+]1(C)CCCC1.FC(F)(F)C(F)(F)[P-](F)(F)(F)(C(F)(F)C(F)(F)F)C(F)(F)C(F)(F)F | 1572.6 ± 2.3 kg/m3 |
| COCC[N+]1(C)CCCC1.O=S(=O)([N-]S(=O)(=O)C(F)(F)F)C(F)(F)F | 1445.2 ± 2 kg/m3 |

====

Recorded viscosity for the following compounds
# Condition Label: 363.15 K; 101.33 kPa; Liquid; Concentric cylinders viscometry

| Compound | viscosity, mPa·s |
| --- | --- |
| CCCCCCCCCCCCCC[P+](CCCCCC)(CCCCCC)CCCCCC.FC(F)(F)C(F)(F)[P-](F)(F)(F)(C(F)(F)C(F)(F)F)C(F)(F)C(F)(F)F | 23.12 |
| CCCCCCOS(=O)(=O)[O-].CC[n+]1ccn(C)c1 [3-ethyl-1-methyl-1H-imidazolium hexyl sulfate] | 21.8 |
| COCC[N+]1(C)CCCC1.O=S(=O)([N-]S(=O)(=O)C(F)(F)F)C(F)(F)F | 8.718 |
| CCCC[N+]1(C)CCCC1.O=S(=O)([N-]S(=O)(=O)C(F)(F)F)C(F)(F)F | 10.33 |
| CCCC[N+]1(C)CCCC1.O=S(=O)([O-])C(F)(F)F [1-butyl-1-methylpyrrolidinium trifluoromethanesulfonate] | 16.29 |
| CCCC[N+]1(C)CCCC1.FC(F)(F)C(F)(F)[P-](F)(F)(F)(C(F)(F)C(F)(F)F)C(F)(F)C(F)(F)F | 16.63 |
| CCCCn1cc[n+](C)c1C.O=S(=O)([N-]S(=O)(=O)C(F)(F)F)C(F)(F)F | 10.94 |
| CCOS(=O)(=O)[O-].CCn1cc[n+](C)c1 [1-ethyl-3-methylimidazolium ethyl sulfate] | 11.69 |
